I'd appreciate it if you could supply GI50 values for the items below.
test system: COLO 205; assay: NCI tumour cell line growth inhibition, 48 h
Calls of active or inactive are those of the source. No stated cut-off is given here; in the data, active = GI50 up to about 1.1 µM and inactive = higher.

So, C=CCSc1ncnc2c1ncn2C1OC(CO)C(O)C1O (configuration not stated) ? Its GI50 was 41.2 µM (inactive)

The recorded GI50 for entry O=C(CCc1cc(-c2ccco2)n(-c2ccc([N+](=O)[O-])cc2[N+](=O)[O-])n1)Nc1ccccc1 equals > 100 µM (inactive)

GI50 recorded for this molecule, CCCSc1ccc2[nH]c(N3C(=O)/C(=C/c4ccco4)N=C3c3ccccc3)cc2c1 , is 10.4 µM (inactive)

The recorded GI50 for entry C=CCN1CN(C2CCCCC2)CSC1=S equals 3.32 µM (inactive)

For CCOC(=O)NC(=O)c1cn(CCOC(=O)NCCCCCCNC(=O)OCCn2cc(C(=O)NC(=O)OCC)c(=O)[nH]c2=O)c(=O)[nH]c1=O the molecule record lists GI50 as > 100 µM (inactive)

Measured GI50, O=C1C=CC(=O)[C@H]2C3C=CC(C4C3C3(Cl)C(Cl)=C(Cl)[C@]4(Cl)C3(Cl)Cl)[C@@H]12 (some centres not stated) : 5.7 µM (inactive)

For reference, reported GI50 for COc1ccc(C2SCC(=O)N2c2ccc(-c3ccc(-n4c(-c5ccccc5)nc5ccccc5c4=O)cc3)cc2)cc1OC (configuration not stated) stands at 18.4 µM (inactive)
